- study-system: hTRPV3 (Homo sapiens (Human))
- Sequence (Q8NET8 whole entry): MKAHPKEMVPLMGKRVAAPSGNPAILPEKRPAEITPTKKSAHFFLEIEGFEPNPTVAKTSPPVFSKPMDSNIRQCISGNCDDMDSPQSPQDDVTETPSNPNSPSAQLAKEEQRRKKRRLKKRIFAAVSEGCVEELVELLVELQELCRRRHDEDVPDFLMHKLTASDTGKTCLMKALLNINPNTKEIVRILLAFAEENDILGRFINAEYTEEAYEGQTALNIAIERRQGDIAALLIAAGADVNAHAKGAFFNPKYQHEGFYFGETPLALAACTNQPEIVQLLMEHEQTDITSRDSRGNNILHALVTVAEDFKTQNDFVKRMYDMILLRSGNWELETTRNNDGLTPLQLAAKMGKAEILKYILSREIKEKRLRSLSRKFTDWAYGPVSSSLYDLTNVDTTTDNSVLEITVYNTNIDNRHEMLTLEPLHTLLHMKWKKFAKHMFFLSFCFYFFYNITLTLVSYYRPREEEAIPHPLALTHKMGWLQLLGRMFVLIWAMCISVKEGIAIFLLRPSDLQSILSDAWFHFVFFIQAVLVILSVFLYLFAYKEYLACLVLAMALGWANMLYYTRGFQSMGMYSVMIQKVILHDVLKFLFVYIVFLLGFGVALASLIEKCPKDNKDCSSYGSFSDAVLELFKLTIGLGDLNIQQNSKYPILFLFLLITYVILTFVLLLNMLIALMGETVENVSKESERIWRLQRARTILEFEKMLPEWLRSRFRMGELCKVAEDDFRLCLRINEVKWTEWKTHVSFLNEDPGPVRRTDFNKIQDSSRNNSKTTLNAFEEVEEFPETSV
- protocol-summary: Whole-cell patch clamp, hTRPV3 Phase 1 / Phase 2 currents
- Format: cell-based
- settings: hTRPV3 Patch P2 Inwd (nM), Phase 2 current, inward, whole-cell patch clamp
measured-metric: IC50

Look up hTRPV3 (Homo sapiens (Human)) data: IC50 of Nc1cc(-c2ccccc2)ccc1N1CC[C@H](Oc2ccc3cc(Cl)ccc3n2)C1 [Compound 1-71] , then report it.
> 1000 nM

Shift focus to the following entry.
Look up hTRPV3 (Homo sapiens (Human)) data: IC50 of COc1cc(-c2ccccc2)ccc1N1CC[C@@H](Oc2ncc(C(F)(F)F)cc2Cl)C1 [Compound 1-120] , then report it.
> 1000 nM
